Data provenance: patent US20200317817A1

target-of-assay: T1, recombinant N-terminal extracellular domain of the human PTH1R receptor (human, UniProt Q03431 27-188, limits assumed)
T1 construct: domain: N-terminal extracellular domain; Bought reagent; also called N-ECD PTH1R; PTH1R N-terminal ECD
T1 sequence (looked up): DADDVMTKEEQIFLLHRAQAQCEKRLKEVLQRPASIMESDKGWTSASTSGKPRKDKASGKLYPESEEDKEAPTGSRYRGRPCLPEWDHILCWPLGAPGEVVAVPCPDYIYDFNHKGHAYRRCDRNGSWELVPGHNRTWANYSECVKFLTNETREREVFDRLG
test-method-notes: SPR, IgG captured, ECD injected
Method: An anti-human IgG-Fc CMS sensor chip (GE Healthcare) was prepared using standard amine coupling as described by the manufacturer's protocol for the capture Ab on a BIACORE 4000 system (GE Healthcare). […] The data were analyzed using BIACORE 4000 Evaluation Software and was double referenced by subtracting both the blank flow cell data and the averaged bracketing blank injections. […]
readout-kind: pKd
Scale: pKd equals -log10([C]), with [C] in mol/L.

Sample records with pKd:
[[record]]
binder = "XPA.85.288 (antibody, V domains shown, also called Ab288) VH: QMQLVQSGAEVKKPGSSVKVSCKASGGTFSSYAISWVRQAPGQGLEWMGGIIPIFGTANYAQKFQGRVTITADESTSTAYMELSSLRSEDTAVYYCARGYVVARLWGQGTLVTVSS VL: DVVMTQTPLSLSVTPGQPASISCKSSQSLLHIDGKTYLYWYLQKSGQSPQLLIYEVSNRFSGVPDTFSGSGSGTDFTLKISRVEAEDVGVYYCMQSLHFPITFGQGTRLEIK"
readout_number = 9.74

[[record]]
binder = "XPA.85.340 (antibody, V domains shown, Light-chain-shuffled variant of XPA.85.017) VH: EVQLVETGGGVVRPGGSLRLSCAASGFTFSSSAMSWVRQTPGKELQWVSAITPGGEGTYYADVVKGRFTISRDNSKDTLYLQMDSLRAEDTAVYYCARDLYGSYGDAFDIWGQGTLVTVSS VL: SYVLTQPPSVSVAPGQTASITCSGDNLGEKFVSWYQQKAGQSPVLVIFEDNKRPSGIPERFAGSNSGNRATLTIRGTQAEDEADYYCQAWDSSWVFGGGTQLTVL"
readout_number = 9.12


From here, focus on the item given below.
State the recorded pKd for this entry: XPA.85.328 (antibody, V domains shown, IgG; also called Ab328) VH: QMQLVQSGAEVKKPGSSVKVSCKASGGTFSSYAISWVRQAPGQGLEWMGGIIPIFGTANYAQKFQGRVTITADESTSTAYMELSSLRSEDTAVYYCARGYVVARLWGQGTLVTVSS VL: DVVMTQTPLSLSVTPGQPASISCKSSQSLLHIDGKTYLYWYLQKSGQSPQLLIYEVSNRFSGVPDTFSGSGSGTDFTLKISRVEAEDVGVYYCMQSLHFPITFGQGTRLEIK
9.49
